src = patent US20080044360A1

Biological target: T1, rat collagen, acid soluble, type I, rat tail (Upstate 08-115) (rat, UniProt P02454 152-1207; P02466 86-1125)
T1 construct: tissue extract, gelled and dried in wells; also called dried rat collagen
T1 sequence (P02454 152-1207, chain 1 of 2): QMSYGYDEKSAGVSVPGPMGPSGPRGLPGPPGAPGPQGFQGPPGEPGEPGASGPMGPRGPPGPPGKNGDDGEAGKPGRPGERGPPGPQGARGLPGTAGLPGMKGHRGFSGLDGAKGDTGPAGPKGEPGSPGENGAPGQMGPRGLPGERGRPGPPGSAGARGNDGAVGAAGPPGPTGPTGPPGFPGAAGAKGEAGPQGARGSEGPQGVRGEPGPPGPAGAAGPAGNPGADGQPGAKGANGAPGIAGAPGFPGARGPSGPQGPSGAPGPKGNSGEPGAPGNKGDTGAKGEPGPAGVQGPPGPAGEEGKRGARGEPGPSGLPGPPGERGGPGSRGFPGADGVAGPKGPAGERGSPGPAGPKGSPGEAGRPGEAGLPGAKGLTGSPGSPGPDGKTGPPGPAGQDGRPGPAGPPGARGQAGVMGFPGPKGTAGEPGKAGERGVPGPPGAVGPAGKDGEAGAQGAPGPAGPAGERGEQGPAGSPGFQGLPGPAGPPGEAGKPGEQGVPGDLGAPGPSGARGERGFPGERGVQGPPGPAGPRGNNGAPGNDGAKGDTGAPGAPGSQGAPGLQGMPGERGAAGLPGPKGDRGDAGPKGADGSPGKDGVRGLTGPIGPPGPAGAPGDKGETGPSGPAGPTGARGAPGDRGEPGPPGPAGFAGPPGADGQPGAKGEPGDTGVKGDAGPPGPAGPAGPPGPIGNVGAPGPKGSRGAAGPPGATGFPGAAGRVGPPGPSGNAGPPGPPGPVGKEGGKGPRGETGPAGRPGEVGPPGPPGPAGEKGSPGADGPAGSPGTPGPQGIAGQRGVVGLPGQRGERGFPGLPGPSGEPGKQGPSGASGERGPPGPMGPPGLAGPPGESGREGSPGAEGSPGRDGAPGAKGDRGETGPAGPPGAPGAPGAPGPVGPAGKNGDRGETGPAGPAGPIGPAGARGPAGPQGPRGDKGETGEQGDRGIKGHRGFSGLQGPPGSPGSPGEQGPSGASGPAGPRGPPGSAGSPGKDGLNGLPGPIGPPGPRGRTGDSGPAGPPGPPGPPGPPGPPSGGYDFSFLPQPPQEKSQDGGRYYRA
T1 sequence (P02466 86-1125, chain 2 of 2): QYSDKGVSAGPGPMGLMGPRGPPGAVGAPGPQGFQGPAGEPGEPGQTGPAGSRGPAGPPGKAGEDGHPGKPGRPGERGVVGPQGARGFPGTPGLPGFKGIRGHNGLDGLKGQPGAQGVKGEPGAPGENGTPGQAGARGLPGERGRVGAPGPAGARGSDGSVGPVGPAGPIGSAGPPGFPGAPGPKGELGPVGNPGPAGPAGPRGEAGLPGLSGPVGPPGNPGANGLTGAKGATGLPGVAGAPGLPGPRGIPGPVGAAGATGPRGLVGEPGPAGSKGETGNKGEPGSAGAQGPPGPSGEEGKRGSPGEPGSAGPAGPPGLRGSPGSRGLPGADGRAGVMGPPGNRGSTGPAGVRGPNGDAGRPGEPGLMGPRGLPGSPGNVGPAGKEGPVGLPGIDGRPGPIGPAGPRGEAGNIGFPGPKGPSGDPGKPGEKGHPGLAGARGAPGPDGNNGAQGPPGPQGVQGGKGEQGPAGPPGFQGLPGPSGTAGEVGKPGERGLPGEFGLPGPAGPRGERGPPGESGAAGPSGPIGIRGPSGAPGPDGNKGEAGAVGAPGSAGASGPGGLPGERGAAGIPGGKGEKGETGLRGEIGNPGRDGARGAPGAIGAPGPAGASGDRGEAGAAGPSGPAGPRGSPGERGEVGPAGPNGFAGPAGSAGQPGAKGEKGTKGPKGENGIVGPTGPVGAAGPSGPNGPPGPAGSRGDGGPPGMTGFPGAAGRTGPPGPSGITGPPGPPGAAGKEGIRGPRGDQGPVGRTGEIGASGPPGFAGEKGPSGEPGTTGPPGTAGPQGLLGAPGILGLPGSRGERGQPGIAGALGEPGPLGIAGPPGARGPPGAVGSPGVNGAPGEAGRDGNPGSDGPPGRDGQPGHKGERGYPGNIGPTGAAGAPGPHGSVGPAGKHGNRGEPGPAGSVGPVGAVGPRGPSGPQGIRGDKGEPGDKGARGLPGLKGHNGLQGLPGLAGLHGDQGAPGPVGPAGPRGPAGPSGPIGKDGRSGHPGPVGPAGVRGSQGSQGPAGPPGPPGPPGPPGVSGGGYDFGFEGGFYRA
Assay: dried collagen assay
Bridge positions count the residues as written; N and C are the ends. Square brackets hold non-standard residues; d marks the D form. Primed or numbered codes have the meaning given here. Side chains are listed from the residue outwards. Ends that are not written are not given here. Bip = N[C@@H](Cc1ccc(-c2ccccc2)cc1)C(=O)O; Gd^T″ = GdDTPA-thiourea; AEEA = NCCOCCOCC(=O)O
Kindly supply the reported % bound values for the records listed here.
One number for each entry, in %.

Before answering, review these 3 worked examples.
QUERY: Query: % bound; subject: {Gd^T″}-GQWHCT[dY]RFPHHYCLYG (disulfide 5-14 (inferred); not fully specified (C-terminus)) [Compound ID 899]
RESULT: 14

QUERY: Query: % bound; subject: {Gd^T″}-GQWHCTTRFPSHYCLYG (disulfide 5-14 (inferred)) [Compound ID 880]
RESULT: 0

QUERY: Query: % bound; subject: {Gd^T″}-GK([Gly-Gd^T″])WHCYTYFPHHYCVYG-{AEEA-Gd^T″} (disulfide 5-14 (inferred)) [Compound ID 998]
RESULT: 75

Each binder below has a reported value. Please supply its % bound.
1. {Gd^T″}-GK([Gly-Gd^T″])WHCYTK(Gd^T″)FPHHYCK(Gd^T″)Y[Bip] (disulfide 5-14) [Compound ID 1012]
2. {Gd^T″}-GQWHCTTLFPHNYCLYG (disulfide 5-14 (inferred)) [Compound ID 924]

RESULT:
92
1
